molecular target: EGFR exon 20 SVD Ins D770_N771 (Ba/F3 cells) (Homo sapiens, UniProt P00533, INS770SVD); construct: expressed in transfected cells; host or cells: Ba/F3 (murine pro-B cells), retroviral transduction, puromycin selection, IL3-independent pool; test: Inhibitor activity on EGFR-dependent cell growth (CellTiter-Glo, 72 h), Ba/F3 EGFR exon 20 SVD Ins; type: cell-based; details: read-out: BaF3 SVD IC50
Sequence (P00533 with tags, fused parts or gaps INS770SVD): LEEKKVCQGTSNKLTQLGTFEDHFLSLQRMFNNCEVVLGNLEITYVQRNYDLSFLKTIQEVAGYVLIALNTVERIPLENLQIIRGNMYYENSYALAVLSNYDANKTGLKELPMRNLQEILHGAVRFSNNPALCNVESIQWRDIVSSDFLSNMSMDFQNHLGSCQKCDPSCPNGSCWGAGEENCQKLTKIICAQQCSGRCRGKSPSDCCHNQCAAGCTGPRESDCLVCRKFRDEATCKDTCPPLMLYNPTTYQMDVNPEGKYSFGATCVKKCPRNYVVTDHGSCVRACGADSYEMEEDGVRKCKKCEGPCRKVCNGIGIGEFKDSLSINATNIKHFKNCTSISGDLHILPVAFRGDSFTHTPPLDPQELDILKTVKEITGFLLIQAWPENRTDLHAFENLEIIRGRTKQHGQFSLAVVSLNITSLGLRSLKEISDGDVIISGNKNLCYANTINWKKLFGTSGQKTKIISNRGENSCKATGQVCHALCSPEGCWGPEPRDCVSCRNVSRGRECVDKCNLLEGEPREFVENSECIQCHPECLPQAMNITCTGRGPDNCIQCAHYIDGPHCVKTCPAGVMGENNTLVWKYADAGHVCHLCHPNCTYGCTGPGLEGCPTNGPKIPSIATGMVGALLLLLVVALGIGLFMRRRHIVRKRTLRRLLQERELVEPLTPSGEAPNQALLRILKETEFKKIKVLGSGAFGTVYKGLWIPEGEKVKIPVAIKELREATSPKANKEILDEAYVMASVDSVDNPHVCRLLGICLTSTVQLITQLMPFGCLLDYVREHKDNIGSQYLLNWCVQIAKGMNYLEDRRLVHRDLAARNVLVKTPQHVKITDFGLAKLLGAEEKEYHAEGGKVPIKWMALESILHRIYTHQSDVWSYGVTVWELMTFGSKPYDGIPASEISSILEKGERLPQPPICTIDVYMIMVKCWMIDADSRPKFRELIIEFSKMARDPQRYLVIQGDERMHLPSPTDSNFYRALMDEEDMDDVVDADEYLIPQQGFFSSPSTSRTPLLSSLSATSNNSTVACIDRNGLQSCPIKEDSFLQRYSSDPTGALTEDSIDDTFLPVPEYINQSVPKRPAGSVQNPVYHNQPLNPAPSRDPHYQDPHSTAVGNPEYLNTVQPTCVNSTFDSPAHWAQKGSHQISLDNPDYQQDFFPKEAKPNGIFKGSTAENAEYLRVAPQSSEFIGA
property: IC50

{"compound": "COC(=O)N1CC2(CNC(=O)c3c2[nH]c(-c2ccncc2F)c3Nc2cccc(Cl)c2OC)C1 [Compound 490]", "systemTested": "EGFR exon 20 SVD Ins D770_N771 (Ba/F3 cells) (Homo sapiens, UniProt P00533, INS770SVD)", "IC50": "> 1000 nM"}
{"compound": "COc1c(Cl)cccc1Nc1c(-c2ccncc2F)[nH]c2c1C(=O)NC[C@@]21CCN(S(C)(=O)=O)C1 [compound 493]", "systemTested": "EGFR exon 20 SVD Ins D770_N771 (Ba/F3 cells) (Homo sapiens, UniProt P00533, INS770SVD)", "IC50": "100 to 1000 nM"}
{"compound": "COc1c(Cl)cccc1Nc1c(-c2ccncc2F)[nH]c2c(C[C@@H]3COCCO3)c[nH]c(=O)c12 [compound 657]", "systemTested": "EGFR exon 20 SVD Ins D770_N771 (Ba/F3 cells) (Homo sapiens, UniProt P00533, INS770SVD)", "IC50": "< 100 nM"}
{"compound": "COc1c(F)cccc1Nc1c(-c2ccncn2)[nH]c2c1C(=O)NCC2C[C@H]1COCCO1 (single isomer, unassigned) [Compound 572]", "systemTested": "EGFR exon 20 SVD Ins D770_N771 (Ba/F3 cells) (Homo sapiens, UniProt P00533, INS770SVD)", "IC50": "< 100 nM"}
{"compound": "COc1c(Cl)cccc1Nc1c(-c2ccnc3ccc(O[C@@H]4CCOC4)nc23)[nH]c2c1C(=O)NCC2 [compound 743]", "systemTested": "EGFR exon 20 SVD Ins D770_N771 (Ba/F3 cells) (Homo sapiens, UniProt P00533, INS770SVD)", "IC50": "< 100 nM"}
{"compound": "COc1c(F)cccc1Nc1c(-c2ccnc(Nc3nnn(C)c3C)n2)[nH]c2c1C(=O)NCC2 [compound 608]", "systemTested": "EGFR exon 20 SVD Ins D770_N771 (Ba/F3 cells) (Homo sapiens, UniProt P00533, INS770SVD)", "IC50": "> 1000 nM"}

I have 3 compounds here; please give me IC50 for each one.
1. COc1c(Cl)cccc1Nc1c(-c2ccncc2F)[nH]c2c1C(=O)NC[C@@]21CCN(C)C1 [compound 816]
2. COc1cc(Cl)cc(Nc2c(-c3ccnc(N)n3)[nH]c3c2C(=O)NCC3)c1 [compound 302]
3. COc1c(Cl)cccc1Nc1c(-c2ccncc2F)[nH]c2c1C(=O)NC[C@]21CCN(C(C)=O)C1 [compound 491]

100 to 1000 nM
> 1000 nM
> 1000 nM

I have 7 compounds here; please give me IC50 for each one.
1. COc1c(Cl)cccc1Nc1c(-c2ccnc(-c3cn(C)nn3)n2)[nH]c2c1C(=O)NCC2 [compound 545]
2. COc1c(Cl)cccc1Nc1c(-c2ccnc(Nc3cnoc3C)n2)[nH]c2c1C(=O)NCC2 [compound 510]
3. C=CC(=O)N1CCC2(CC1)CNC(=O)c1c2[nH]c(-c2ccncc2F)c1Nc1cccc(F)c1F [Compound 585]
4. CC[C@@H]1CNC(=O)c2c1[nH]c(-c1ccnc(N)n1)c2Nc1cccc(Cl)c1OC [189a]
5. COc1c(Cl)cccc1Nc1c(-c2ccnc3cnc(OCCN4CCOCC4)nc23)[nH]c2c1C(=O)NCC2 [compound 506]
6. CCOc1ncc2nccc(-c3[nH]c4c(c3Nc3cccc(Cl)c3OC)C(=O)NCC4)c2n1 [compound 827]
7. COc1c(Cl)cccc1Nc1c(-c2ccnc3cnc(OC4CC4)nc23)[nH]c2c1C(=O)NCC2 [Compound 771]

1: 100 to 1000 nM; 2: < 100 nM; 3: < 100 nM; 4: < 100 nM; 5: 100 to 1000 nM; 6: < 100 nM; 7: < 100 nM

----------
target: EGFR exon 20 SVD Ins D770_N771 (Ba/F3 cells) (Homo sapiens, UniProt P00533, INS770SVD); construct: expressed in transfected cells; host or cells: Ba/F3 (murine pro-B cells), retroviral transduction, puromycin selection, IL3-independent pool; experiment: Inhibitor activity on EGFR-dependent cell growth (CellTiter-Glo, 72 h), Ba/F3 EGFR exon 20 SVD Ins; format: cell-based; details: read-out: BaF3 SVD IC50
Please respond with reported IC50 for every item in the list.

Before answering, review these 5 worked examples.
{"compound": "COc1ccc2nccc(-c3[nH]c4c(c3Nc3cccc(Cl)c3OC)C(=O)NC[C@H]4C)c2n1 [310a]", "IC50": "< 100 nM"}
{"compound": "COc1c(Cl)cccc1Nc1c(-c2ccnc(NCc3ccccc3)n2)[nH]c2c1C(=O)NCC2", "IC50": "100 to 1000 nM"}
{"compound": "CSc1c(F)cccc1Nc1c(-c2ccnc(N)n2)[nH]c2c1C(=O)NCC2", "IC50": "100 to 1000 nM"}
{"compound": "COc1c(Nc2c(-c3ccnc(N)n3)[nH]c3c2C(=O)NCC3)cccc1C(C)=O", "IC50": "> 1000 nM"}
{"compound": "COc1c(Cl)cccc1Nc1c(-c2ccnc(Nc3cnn(C(C)C)c3)n2)[nH]c2c1C(=O)NCC2", "IC50": "< 100 nM"}

I have 6 compounds here; please give me IC50 for each one.
1. COc1c(Cl)cccc1Nc1c(-c2ccnc(C)n2)[nH]c2c(C[C@H]3COCCO3)c[nH]c(=O)c12
2. COc1c(F)cccc1Nc1c(-c2ccnc(Nc3cnnn3C)n2)[nH]c2c1C(=O)NCC2
3. COc1c(Cl)cccc1Nc1c(-c2ccnc(NCCN(C)C)n2)[nH]c2c1C(=O)NCC2
4. COc1c(Cl)cccc1Nc1c(-c2ccnc3ccc(OCC4(C(F)(F)F)CC4)nc23)[nH]c2c1C(=O)NCC2
5. COc1c(Cl)cccc1Nc1c(-c2ccnc3[nH]c(=O)oc23)[nH]c2c1C(=O)NCC2
6. COc1ncc2nccc(-c3[nH]c4c(c3Nc3cccc(F)c3C)C(=O)NCC4)c2n1

< 100 nM
< 100 nM
> 1000 nM
100 to 1000 nM
> 1000 nM
< 100 nM

I have 5 compounds here; please give me IC50 for each one.
1. COc1c(F)cccc1Nc1c(-c2ccncn2)[nH]c2c1C(=O)NC[C@H]2C[C@@H]1COCCO1
2. COc1c(F)cccc1Nc1c(-c2ccnc(N)c2F)[nH]c2c1C(=O)NCC2
3. CNC(=O)N1CC[C@@]2(CNC(=O)c3c2[nH]c(-c2ccncc2F)c3Nc2cccc(Cl)c2OC)C1
4. COc1c(F)cccc1Nc1c(-c2ccncc2F)[nH]c2c1C(=O)NCC2
5. COc1c(Cl)cccc1Nc1c(-c2ccnc(Nc3ccc(N4CCN(C)CC4)nc3)n2)[nH]c2c1C(=O)NCC2

1. < 100 nM
2. 100 to 1000 nM
3. > 1000 nM
4. 100 to 1000 nM
5. < 100 nM

I have 6 compounds here; please give me IC50 for each one.
1. COc1c(F)cccc1Nc1c(-c2ccnc3cnc(C(F)(F)F)nc23)[nH]c2c1C(=O)NCC2
2. C=CC(=O)N1CCC2(CC1)CNC(=O)c1c2[nH]c(-c2ccnc(N)n2)c1Nc1cccc(Cl)c1OC
3. COCC[C@H]1CNC(=O)c2c(Nc3cccc(Cl)c3OC)c(-c3ccncn3)n(C)c21 (single isomer, unassigned)
4. COc1ncc2nccc(-c3[nH]c4c(c3Nc3cccc(Cl)c3Cl)C(=O)NCC4)c2n1
5. COc1ccc2nccc(-c3[nH]c4c(c3Nc3cccc(Cl)c3OC)C(=O)NCC4)c2n1
6. C=CC(=O)N1CCN(c2ncc3nccc(-c4[nH]c5c(c4Nc4cccc(F)c4OC)C(=O)NCC5)c3n2)CC1

1: 100 to 1000 nM; 2: < 100 nM; 3: > 1000 nM; 4: < 100 nM; 5: < 100 nM; 6: < 100 nM

I have 4 compounds here; please give me IC50 for each one.
1. COc1c(Cl)cccc1Nc1c(-c2ccncc2F)[nH]c2c1C(=O)NC[C@@H]2CCF
2. COC[C@H]1CNC(=O)c2c1[nH]c(-c1ccnc3ccc(OC)nc13)c2Nc1cccc(Cl)c1OC
3. COc1c(F)cccc1Nc1c(-c2ccnc3cc(F)cnc23)[nH]c2c1C(=O)NCC2
4. COC(=O)N1CCC2(CC1)CNC(=O)c1c2[nH]c(-c2ccncc2F)c1Nc1cccc(Cl)c1OC

1: 100 to 1000 nM; 2: < 100 nM; 3: < 100 nM; 4: 100 to 1000 nM

I have 2 compounds here; please give me IC50 for each one.
1. COc1c(Cl)cccc1Nc1c(-c2ccnc3ccc(OCC4(F)CC4)nc23)[nH]c2c1C(=O)NCC2
2. COc1c(Cl)cccc1Nc1c(-c2ccncc2F)[nH]c2c1C(=O)NCC21COC1

1. < 100 nM
2. 100 to 1000 nM
